Reference source: the supplement of paper PMC7877785

- Run Description: self-splicing fitness, log relative to wild type (ln ratio); higher = more splicing; Tetrahymena group I intron in knt gene, E. coli kanamycin selection, DiMSum; sequences stand for … in CUCUCU…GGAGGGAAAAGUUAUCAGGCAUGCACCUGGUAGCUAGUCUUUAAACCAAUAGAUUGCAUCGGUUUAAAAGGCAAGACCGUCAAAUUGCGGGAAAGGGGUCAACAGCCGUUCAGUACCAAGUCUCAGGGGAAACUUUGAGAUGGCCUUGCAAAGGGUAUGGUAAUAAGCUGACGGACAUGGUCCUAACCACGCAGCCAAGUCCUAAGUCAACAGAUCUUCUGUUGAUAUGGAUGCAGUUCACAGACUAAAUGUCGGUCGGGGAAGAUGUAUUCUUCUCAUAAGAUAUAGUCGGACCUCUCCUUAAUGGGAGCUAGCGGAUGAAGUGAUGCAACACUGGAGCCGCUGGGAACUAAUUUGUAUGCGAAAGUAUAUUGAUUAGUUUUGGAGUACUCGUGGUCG;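 further: selection with 25 µg/mL kanamycin versus none on LB agar overnight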
- Reported Conditions: 30 °C
Measurement Type: self-splicing fitness (ln)
I only need the number, thanks.

# example entries with known answers
CUCAAGCAAUAUUACGUCCG    -2.08
UCUCAGCAAUAUUACGUGCG    -3
GAAUAGCAAUAUUACGUGCG    -1.2
CAGAAGCAAUAUUACGCCCA    -1.97

Look at this sequence and give its reported self-splicing fitness (ln). GCAAAGCAAUAUUACGCGAU
-2.8

Consider the sequence CUAUAGCAAUAUUACGGUCU and give its measured self-splicing fitness (ln).
-4.51

Dear colleague, I am looking for the recorded self-splicing fitness (ln) of the following sequence: AGGCAGCAAUAUUACGUUAA
-2.6

Look up self-splicing fitness (ln) for this sequence: CUCGAGCAAUAUUACGGGCG
-2.65

I have this sequence here, UGGAAGCAAUAUUACGCUCG , and I need its recorded self-splicing fitness (ln).
-0.853

GET /values?readout=self-splicing fitness (ln)&item= GCAAAGCAAUAUUACGCACG
-1.83

----------
- Run Description: self-splicing fitness, log relative to wild type (ln ratio); higher = more splicing; Tetrahymena group I intron in knt gene, E. coli kanamycin selection, DiMSum; sequences stand for … in CUCUCU…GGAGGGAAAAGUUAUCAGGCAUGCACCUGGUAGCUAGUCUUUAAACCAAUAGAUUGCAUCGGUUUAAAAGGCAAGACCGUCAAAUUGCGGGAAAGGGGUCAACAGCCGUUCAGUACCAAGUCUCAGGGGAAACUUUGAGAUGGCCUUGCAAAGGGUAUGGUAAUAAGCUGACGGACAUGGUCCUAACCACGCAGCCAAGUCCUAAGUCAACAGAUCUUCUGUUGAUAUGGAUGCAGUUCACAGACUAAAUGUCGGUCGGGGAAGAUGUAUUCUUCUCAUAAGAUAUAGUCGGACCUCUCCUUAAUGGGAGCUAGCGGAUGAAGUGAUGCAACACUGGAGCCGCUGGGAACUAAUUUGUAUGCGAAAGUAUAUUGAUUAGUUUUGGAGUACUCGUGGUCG
- Reported Conditions: 30 °C
Measurement Type: self-splicing fitness (ln)

CAGUAGCAAUAUUACGUGCU    -2.95
CUCGAGCAAUAUUACGGAGG    -2.97
GGUAAGCAAUAUUACGCCGG    -3.09

Continue with the next sequence.
Request the reported self-splicing fitness (ln) associated with AUCCAGCAAUAUUACGUUUU
-2.04
